Where do the numbers come from? From patent US20240092759A1.

target: recombinant SARS-Cov-2 M^pro (Severe acute respiratory syndrome coronavirus 2 (2019-nCoV) (SARS-CoV-2)); assay: biochemical; settings: read-out: IC50 (μM), inhibition of SARS-Cov-2 M^pro; Table 4
Recorded Metric: IC50 (µM)

[[record]]
compound = "COCCOc1cc(Cl)cc(-c2cc(-c3ccccc3C#N)cn(-c3cccnc3)c2=O)c1 [Compound 16]"
result = 0.47

[[record]]
compound = "N#Cc1ccccc1-c1cc(-c2cc(Cl)cc(Cl)c2)c(=O)n(-c2cccnc2)c1 [Compound 9]"
result = 4.02

[[record]]
compound = "O=c1[nH]cc(-c2cc(-c3cc(Cl)cc(OCc4c(F)cccc4F)c3)c(=O)n(-c3cccnc3)c2)c(=O)[nH]1 [Compound 36]"
result = 0.036

